Could you please report measured relative solubility at 20 uM for the items listed next?
details: 20.0 µM
One number for each entry.

compound=COc1ccccc1OCCNC(=O)c1cc(=O)[nH]c2cc(F)ccc12 val=0.88
compound="O=C(CCl)N1CCCC(c2nc(-c3cccnc3)nc3ccccc23)C1 (configuration not stated)" val=0.9
compound=O=C(c1cc(=O)[nH]c2ccccc12)N1CCN(S(=O)(=O)c2ccccc2)CC1 val=0.98
compound=Cc1noc(C)c1NC(=O)Cc1cccc(Cl)c1Cl val=1

Give relative solubility at 20 uM for all compounds that follow.
1. N#Cc1cccc(NC(=O)Cc2c[nH]c3ncccc23)c1
2. N#Cc1ccccc1S(=O)(=O)N1CCN(C(=O)c2cc(=O)[nH]c3ccc(F)cc23)CC1
3. O=C(NCCNc1ccncc1)c1cccc(S(=O)(=O)Nc2ccccc2-c2ccccc2)c1
4. Cc1ccncc1NC(=O)CC(C)(C)NC(=O)c1cccc2[nH]ccc12
5. CC(=O)NCCc1c[nH]c2c(NCc3ccc4nc[nH]c4c3)cc(F)cc12
6. C=CC(=O)N(c1cc(C(C)(C)C)on1)C(C(=O)Nc1ccc(OC)cc1C)c1cccnc1 (configuration not stated)
7. Cc1ccc(S(=O)(=O)N2CCN(C(=O)c3cc(=O)[nH]c4ccc(Cl)cc34)CC2)cc1

a:
1: 1; 2: 0.99; 3: 0.95; 4: 0.99; 5: 0.64; 6: 1; 7: 0.97

* * *

settings: 20.0 µM
Assign relative solubility at 20 uM to each entry below.
Answers are plain numbers.

compound=Cc1cc(NC(=O)Cn2cncc2C)cc(C)c1Cl val=1
compound="CC1(C)CC(C(=O)Nc2nncn2C2CC2)c2ccccc2O1 (stereo unspecified)" val=1
compound=CS(=O)(=O)NCCc1ccccc1O val=1

Count: 6. Required value per item: relative solubility at 20 uM.
1. C=CC(=O)N(c1cc(C)cc(N)c1)C(C(=O)NC(C)(C)C)c1cccnc1 (stereo unspecified)
2. COC1CCN(c2ccc(S(N)(=O)=O)cc2)CC1
3. O=C(CCl)N1CCN(Cc2cc(Cl)ccc2CNC(=O)N2CCOCC2)CC1
4. O=C(NCc1cccnn1)Nc1cccc(OCCN2CCOCC2)c1
5. CNC(=O)OC1CCN(S(=O)(=O)c2ccccc2)CC1
6. CCOC(=O)[C@@H](CCc1ccccc1)N[C@H](C)C(=O)Nc1cccc(CN2CCCC2)c1 (stereo in doubt)

a:
0.99
1
0.98
1
1
0.99

Give relative solubility at 20 uM for each of the items listed below.
1. C=CC(=O)NCc1ccc(C(C)NC(=O)OC(C)(C)C)cc1 (stereo unspecified)
2. COC(=O)c1sc(NS(=O)(=O)c2ccc(CF)cc2)nc1C(C)(C)C

a:
[1, 1]

* * *

target: SARS-CoV-2 Main Protease (SARS-CoV-2); conditions: 20.0 µM
Category | rule: reported inhibition within range, see low bracket: < 0.4%; middle bracket: ≥ 0.4% and < 7%; high bracket: ≥ 7%

Here are 4 molecules together with their reported answers.
molecule="C=CC(=O)N(c1ccc(C(C)(C)C)cc1)C(C(=O)NCc1ccccc1)c1cccnc1 (stereo unspecified)" class="high bracket"
molecule=Cc1nnc(NC(=O)Nc2cccnc2)s1 class="middle bracket"
molecule=Cc1ccncc1NC(=O)c1cccc(NC(=O)Nc2cccnc2)c1 class="middle bracket"
molecule="Cc1ccncc1NC(=O)C(C)c1cccc(Cl)c1 (stereo unspecified)" class="high bracket"

q: Bin this entry: Cc1cccc(NC(=O)C(C#N)C(=O)C2CC2)c1 (stereo unspecified)
a: middle bracket

* * *

target: SARS-CoV-2 Main Protease (SARS-CoV-2); details: 50.0 µM
We use 40% as the dividing line for inhibition: on or above the line is YES, below is NO.

compound=Cc1cc(O)c2c3c(ccc2c1)C(=O)c1c(O)cccc1C3=O tgt="SARS-CoV-2 Main Protease (SARS-CoV-2)" class=NO
compound=O=C(Cc1cccc(Cl)c1)Nc1nnn[nH]1 tgt="SARS-CoV-2 Main Protease (SARS-CoV-2)" class=NO
compound=C#Cc1ccc(CNC(=O)N2CCOCC2)cc1 tgt="SARS-CoV-2 Main Protease (SARS-CoV-2)" class=NO
compound=CS(=O)(=O)c1ncc(Cl)c(C(=O)Nc2ccccc2Cc2ccccc2)n1 tgt="SARS-CoV-2 Main Protease (SARS-CoV-2)" class=YES
compound=NS(=O)(=O)c1ccc2c(c1)C(=O)C(=O)N2 tgt="SARS-CoV-2 Main Protease (SARS-CoV-2)" class=NO

q: Given Cc1cc(NC(=O)Cc2cncnc2)cc(OC2CC(=O)N2)c1 (stereo not given) , state whether its inhibition is at least 40%.
a: YES

q: And for CS(=O)(=O)N1CCN(C(=O)CCl)CC1c1ccccc1 (stereo not given) ?
a: YES

* * *

target: SARS-CoV-2 Main Protease (SARS-CoV-2); details: 20.0 µM
Provide the reported inhibition of each item.
One number for each entry, in %.

molecule=N#Cc1cncc(NC(=O)Nc2cccnc2)c1 val=7.07

For each of the molecules below, state inhibition.
1. O=C(Nc1ccc(N(Cc2ccsc2)C(=O)Cn2nnc3ccccc32)cc1)C1CC1
2. CC(C)(C)c1ccc(-c2nnc(Sc3cnc([N+](=O)[O-])s3)o2)cc1

a:
[69, 8.3]

* * *

molecular target: SARS-CoV-2 Main Protease (SARS-CoV-2); conditions: 20.0 µM
testReadout: inhibition (%)
One number for each entry, in %.

compound=CN(C)C/C=C/C(=O)NCc1c[nH]c2ccccc12 unit=% val=0

Please look at the items below and tell me inhibition for each one, in order.
1. O=C(NCc1ccns1)Nc1cccc(CN2CCCC2=O)c1
2. O=C(Nc1cccc(-c2cc[nH]n2)c1)C(O)c1cccnc1 (stereo unspecified)
3. O=C(Cc1c[nH]c2ncccc12)NCc1ccc(Cl)cn1
4. CC(C)[C@@H](C#N)NS(=O)(=O)c1ccc(CF)cc1 (stereo in doubt)
5. C=CC(=O)N(c1ccc(C(C)(C)C)cc1)C(C(=O)NC(C)CC)c1cccnc1 (stereo unspecified)
6. Cc1ccccc1CN1CCN(C(=O)C(F)C(C)C)CC1 (stereo unspecified)
7. NS(=O)(=O)c1ccc(N2CCC(Nc3ccccc3)CC2)cc1

a:
0
0
0
1.55
3.71
0
27.2

Give measured inhibition for every item shown.
1. N#Cc1cccc(NC(=O)Nc2cncc(N)c2)c1
2. O=C(CCl)N1CCN(Cc2cc(Cl)cc(Cl)c2)CC1
3. Cc1noc(CC(NC(=O)C(C)Cn2ccnc2)c2ccccc2)n1 (stereo unspecified)

a:
[9.09, 100, 0]

* * *

biological target: SARS-CoV-2 Main Protease (SARS-CoV-2); conditions: 50.0 µM
Provide the recorded inhibition for the entries that follow.
Numbers only, in %.

Below is a list of compounds. For each, state its recorded inhibition.
1. C=CC(=O)N(c1ccc(C(C)(C)C)cc1)C(C(=O)NC1CCCC1)c1cccnc1 (stereo not given)
2. Cc1ccc(S(=O)(=O)N2CCN(C(=O)c3cc(=O)[nH]c4ccc(F)cc34)CC2)c(C)c1
3. O=C(NCCc1cccc2ccccc12)c1cc(=O)[nH]c2ccccc12

a:
1. 1.68
2. 11.7
3. 7.36

Answer for every listed entry: what is its inhibition? The entries follow.
1. CS(=O)(=O)c1oc(-c2ccc(F)cc2)nc1S(=O)(=O)c1ccc(Cl)cc1
2. O=C(CC(=O)N1CCOCC1)NCc1ccccc1

a:
1: 0; 2: 0

* * *

conditions: 20.0 µM
Kindly state relative solubility at 20 uM for each of the entries shown.
Answers are plain numbers.

Completed entries (count: 2):
compound=Cc1nnn(C)c1NC(=O)Cc1cccc(Cl)c1 val=1
compound="C=CC(=O)N(c1ccc(C(C)C)nc1)C(C(=O)NC(C)(C)C)c1cccnc1 (stereo unspecified)" val=1

Your task in this section: give relative solubility at 20 uM for each listed record.
1. C=CC(=O)NCC(=O)N(CCN1CCOCC1)Cc1ccccc1Cl
2. C=CC(=O)N(c1ccc(C(C)OC)cc1)C(C(=O)NC(C)(C)C)c1cccnc1 (stereo unspecified)
3. NC1=Nc2nc3ccccc3n2C(c2ccc(-c3nc4ccccc4s3)o2)N1 (stereo unspecified)

a:
1
0.98
0.53

q: Recorded relative solubility at 20 uM for O=C(c1cc(=O)[nH]c2ccc(F)cc12)N1CCN(S(=O)(=O)c2cccc(Cl)c2)CC1 , please?
a: 0.98

* * *

biological target: SARS-CoV-2 Main Protease (SARS-CoV-2); conditions: 20.0 µM
I'd appreciate it if you could supply inhibition values for the items below.
Answers are plain numbers, in %.

compound=CS(=O)(=O)c1oc(-c2ccc(F)cc2)nc1S(=O)(=O)c1ccc(Cl)cc1 val=10.8

Hey, quick one: what's inhibition for each of these?
1. O=C1CCCCC(C(=O)Nc2ccc(-c3nc[nH]n3)cc2F)N1 (stereo not given)
2. Cc1cc(-c2nc3ccccc3[nH]2)ccc1O
3. Cc1ccn(CC(=O)NCc2nccn2CCc2ccccc2)c(=O)c1
4. C=CC(=O)N(C1CCCC(C(C)C)CC1)C(C(=O)NC(C)(C)C)c1cccnc1 (stereo not given)
5. C=CC(=O)N(c1ccc(C(F)(F)F)cc1)C(C(=O)Nc1ccc(OC)cc1)c1cccnc1 (stereo not given)
6. C=CC(=O)N(c1ccc(S(F)(F)(F)(F)F)cc1)C(C(=O)Nc1c(C)cccc1CC)c1cccnc1 (stereo not given)

a:
1: -4.07; 2: -10.3; 3: -14.1; 4: -1.08; 5: 40.3; 6: 3.13

For each listed entry, give its inhibition.
1. Cc1ccncc1NC(=O)CN1CCOCC1
2. C=CC(=O)N(c1ccc(C(C)(C)C)cc1)C(C(=O)NCCCOC)c1cccnc1 (stereo not given)
3. C=CC(=O)N(c1cc(C(C)(C)C)on1)C(C(=O)Nc1c(C)cccc1CC)c1cccnc1 (stereo not given)

a:
-2.39
3.35
7.33
